system: Streptococcus agalactiae; experiment: Antimicrobial activity against penicillin-resistant Streptococcus agalactiae B12 by agar dilution method; type: functional
Answer each item with its documented MIC.
Answers are plain numbers, in µg/mL.

These solved cases illustrate the format of a correct answer.
Param item = CC1(C)S[C@@H]2[C@H](NC(=O)COc3ccccc3)C(=O)N2[C@H]1C(=O)O ; retrieve measured MIC.
0.5

Need MIC, item CC1(C)S[C@@H]2[C@H](NC(=O)[C@H](N)c3ccccc3)C(=O)N2[C@H]1C(=O)O
0.25

Any idea what MIC was measured for C[C@@H](O)[C@H]1C(=O)N2C(C(=O)O)=C(S[C@@H]3CN[C@H](C(=O)N(C)C)C3)[C@H](C)[C@H]12 ?
0.25

I am curious: what MIC value has been reported for Cc1onc(-c2ccccc2)c1C(=O)N[C@@H]1C(=O)N2[C@@H]1SC(C)(C)[C@@H]2C(=O)O ?
4

Using the record for CO/N=C(\C(=O)N[C@@H]1C(=O)N2C(C(=O)O)=C(COC(C)=O)CS[C@H]12)c1csc(N)n1 , report its MIC.
0.5

// returns reported MIC for input CO/N=C(\C(=O)N[C@@H]1C(=O)N2C(C(=O)O)=CCS[C@H]12)c1csc(N)n1
32

Please look at the items below and tell me MIC for each one, in order.
1. Cc1nnc(SCC2=C(C(=O)O)N3C(=O)[C@@H](NC(=O)Cn4cnnn4)[C@H]3SC2)s1
2. CC1(C)S[C@@H]2[C@H](NC(=O)Cc3ccccc3)C(=O)N2[C@H]1C(=O)O
3. CO/N=C(\C(=O)N[C@@H]1C(=O)N2C(C(=O)[O-])=C(C[N+]3(C)CCCC3)CS[C@H]12)c1csc(N)n1 [CEFEPIME]

[1, 0.25, 0.5]
